target: ATR kinase (Homo sapiens, UniProt Q13535)
Construct: Assays were carried out at 25° C. in the presence of 5 nM full-length ATR
Sequence (Q13535 whole entry): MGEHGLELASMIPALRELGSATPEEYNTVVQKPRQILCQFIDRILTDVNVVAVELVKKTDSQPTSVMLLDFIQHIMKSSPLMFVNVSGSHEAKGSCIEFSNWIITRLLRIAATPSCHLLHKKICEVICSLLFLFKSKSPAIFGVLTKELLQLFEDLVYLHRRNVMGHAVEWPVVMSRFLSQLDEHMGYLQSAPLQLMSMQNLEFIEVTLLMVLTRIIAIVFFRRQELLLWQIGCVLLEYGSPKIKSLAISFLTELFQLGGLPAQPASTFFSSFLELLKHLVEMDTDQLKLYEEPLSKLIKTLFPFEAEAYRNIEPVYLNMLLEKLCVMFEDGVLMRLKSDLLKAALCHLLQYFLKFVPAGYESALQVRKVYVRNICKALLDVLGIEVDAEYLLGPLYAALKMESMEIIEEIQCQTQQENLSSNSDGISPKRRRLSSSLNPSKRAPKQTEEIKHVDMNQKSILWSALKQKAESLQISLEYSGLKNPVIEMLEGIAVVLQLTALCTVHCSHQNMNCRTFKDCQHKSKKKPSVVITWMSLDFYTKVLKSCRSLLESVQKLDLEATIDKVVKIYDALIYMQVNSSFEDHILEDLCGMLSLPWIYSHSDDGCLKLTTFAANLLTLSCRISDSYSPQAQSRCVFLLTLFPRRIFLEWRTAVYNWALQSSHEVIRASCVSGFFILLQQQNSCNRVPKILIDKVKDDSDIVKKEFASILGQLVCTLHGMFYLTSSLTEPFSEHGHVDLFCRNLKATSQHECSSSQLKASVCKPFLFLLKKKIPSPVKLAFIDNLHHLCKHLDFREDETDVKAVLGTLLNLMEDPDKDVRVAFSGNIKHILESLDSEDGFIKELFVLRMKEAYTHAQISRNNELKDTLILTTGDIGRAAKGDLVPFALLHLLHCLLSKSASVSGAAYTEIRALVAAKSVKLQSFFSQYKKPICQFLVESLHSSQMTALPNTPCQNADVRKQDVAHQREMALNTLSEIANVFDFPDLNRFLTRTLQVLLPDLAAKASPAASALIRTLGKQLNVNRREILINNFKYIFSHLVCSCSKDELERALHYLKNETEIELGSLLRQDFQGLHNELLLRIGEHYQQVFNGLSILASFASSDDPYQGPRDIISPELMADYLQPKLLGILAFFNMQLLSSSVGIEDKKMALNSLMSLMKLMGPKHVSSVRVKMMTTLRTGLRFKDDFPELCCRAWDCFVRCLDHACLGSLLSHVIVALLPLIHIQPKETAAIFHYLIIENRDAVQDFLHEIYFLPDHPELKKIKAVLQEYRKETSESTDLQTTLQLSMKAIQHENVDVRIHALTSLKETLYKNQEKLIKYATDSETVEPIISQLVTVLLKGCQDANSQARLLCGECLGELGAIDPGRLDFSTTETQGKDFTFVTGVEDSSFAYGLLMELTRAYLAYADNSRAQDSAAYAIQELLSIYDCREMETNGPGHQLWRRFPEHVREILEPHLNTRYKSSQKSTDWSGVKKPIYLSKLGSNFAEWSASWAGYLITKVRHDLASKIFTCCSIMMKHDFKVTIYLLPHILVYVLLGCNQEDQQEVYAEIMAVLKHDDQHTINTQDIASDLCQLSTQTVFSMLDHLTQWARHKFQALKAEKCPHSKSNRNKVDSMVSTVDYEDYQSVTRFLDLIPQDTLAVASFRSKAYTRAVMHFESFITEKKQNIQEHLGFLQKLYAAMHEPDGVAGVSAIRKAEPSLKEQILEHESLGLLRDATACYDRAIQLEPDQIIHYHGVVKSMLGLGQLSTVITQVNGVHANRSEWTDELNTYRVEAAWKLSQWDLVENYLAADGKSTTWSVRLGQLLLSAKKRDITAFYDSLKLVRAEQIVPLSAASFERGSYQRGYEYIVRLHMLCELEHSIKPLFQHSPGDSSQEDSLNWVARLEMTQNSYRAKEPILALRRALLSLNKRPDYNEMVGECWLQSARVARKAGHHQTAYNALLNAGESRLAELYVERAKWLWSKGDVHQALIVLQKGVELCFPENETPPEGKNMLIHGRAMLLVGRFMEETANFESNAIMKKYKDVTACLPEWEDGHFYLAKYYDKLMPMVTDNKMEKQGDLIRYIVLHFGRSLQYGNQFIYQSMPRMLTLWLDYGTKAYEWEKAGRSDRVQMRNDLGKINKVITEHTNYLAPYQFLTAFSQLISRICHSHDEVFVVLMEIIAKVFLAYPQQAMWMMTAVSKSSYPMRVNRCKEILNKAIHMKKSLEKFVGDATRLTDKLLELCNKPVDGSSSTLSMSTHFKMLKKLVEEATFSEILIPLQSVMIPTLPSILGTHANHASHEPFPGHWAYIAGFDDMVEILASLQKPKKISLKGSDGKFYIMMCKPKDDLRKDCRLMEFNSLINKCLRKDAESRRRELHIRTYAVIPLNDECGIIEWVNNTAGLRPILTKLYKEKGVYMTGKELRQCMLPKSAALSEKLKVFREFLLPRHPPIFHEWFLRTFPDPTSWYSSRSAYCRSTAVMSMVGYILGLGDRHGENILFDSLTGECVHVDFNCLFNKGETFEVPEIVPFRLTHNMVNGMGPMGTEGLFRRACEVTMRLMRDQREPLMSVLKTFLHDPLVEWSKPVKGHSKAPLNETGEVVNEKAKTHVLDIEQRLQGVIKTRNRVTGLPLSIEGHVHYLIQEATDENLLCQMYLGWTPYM
method-notes: ATR Inhibition Assay (radioactive-phosphate incorporation)
Reported Ki values for the following molecules.

Past entries and their recorded results:
[[record]]
smiles_representation = "CCC(=O)N1CC=C(c2cnc(N)c(C#Cc3cccc(O)c3)n2)CC1"
measurement = "≤ 100 nM"

[[record]]
smiles_representation = "CC(C)S(=O)(=O)c1ccc(-c2cnc(N)c(C#Cc3ccsc3)n2)cc1"
measurement = "100 to 1000 nM"

[[record]]
smiles_representation = "CC(C)S(=O)(=O)c1ccc(-c2cnc(N)c(C#Cc3cccc(OCCCN)c3)n2)cc1"
measurement = "≤ 100 nM"

[[record]]
smiles_representation = "CC(C)n1cc(-c2cnc(N)c(C#Cc3cccc(O)c3)n2)ccc1=O"
measurement = "≤ 100 nM"

[[record]]
smiles_representation = "CC(C)S(=O)(=O)c1ccc(-c2cnc(N)c(C#C[C@@H](C)O)n2)cc1"
measurement = "100 to 1000 nM"


Ask | Give ATR kinase (Homo sapiens, UniProt Q13535) Ki for the following molecule: CC(C)S(=O)(=O)c1ccc(-c2cnc(N)c(C#C[C@H](C)O)n2)cc1
Reply | 1000 to 13000 nM

Ask | Give ATR kinase (Homo sapiens, UniProt Q13535) Ki for the following molecule: CC(C)S(=O)(=O)c1ccc(-c2cnc(N)c(C#Cc3cncn3C)n2)cc1
Reply | ≤ 100 nM

Ask | Give ATR kinase (Homo sapiens, UniProt Q13535) Ki for the following molecule: CC(C)S(=O)(=O)c1ccc(-c2cnc(N)c(C#Cc3cccc(OCCN)c3)n2)cc1
Reply | ≤ 100 nM

====

target: ATR kinase (Homo sapiens)
Construct: Assays were carried out at 25° C. in the presence of 5 nM full-length ATR
method-notes: ATR Inhibition Assay (radioactive-phosphate incorporation)
Reported Ki values for the following compounds.

[[record]]
smiles_representation = "CC(C)S(=O)(=O)c1ccc(-c2cnc(N)c(C#Cc3cccc(N)n3)n2)cc1"
measurement = "≤ 100 nM"

[[record]]
smiles_representation = "CC(C)S(=O)(=O)c1ccc(-c2cnc(N)c(C#Cc3cccnc3)n2)cc1"
measurement = "≤ 100 nM"

[[record]]
smiles_representation = "COc1ccccc1C#Cc1nc(-c2ccc(S(=O)(=O)C(C)C)cc2)cnc1N"
measurement = "100 to 1000 nM"

[[record]]
smiles_representation = "CC(C)S(=O)(=O)c1ccc(-c2cnc(N)c(C#Cc3cccc(F)c3)n2)cc1"
measurement = "≤ 100 nM"

[[record]]
smiles_representation = "CC(C)S(=O)(=O)c1ccc(-c2cnc(N)c(C#Cc3cccc(Cl)c3)n2)cc1"
measurement = "≤ 100 nM"


Ask | Give reported Ki value for CC(C)S(=O)(=O)c1ccc(-c2cnc(N)c(C#Cc3cccc(OCCN4CCOCC4)c3)n2)cc1
Reply | 100 to 1000 nM

Ask | Give reported Ki value for Cc1ccc(O)cc1C#Cc1nc(-c2ccc(S(=O)(=O)C(C)C)cc2)cnc1N
Reply | ≤ 100 nM

Ask | Give reported Ki value for CC(C)S(=O)(=O)c1ccc(-c2cnc(N)c(C#Cc3ccncc3)n2)cc1
Reply | ≤ 100 nM

====

target: ATR kinase (Homo sapiens, UniProt Q13535)
Construct: Assays were carried out at 25° C. in the presence of 5 nM full-length ATR
method-notes: ATR Inhibition Assay (radioactive-phosphate incorporation)
Reported Ki values for the following molecules.

Past entries and their recorded results:
[[record]]
molecule = "CC(C)S(=O)(=O)c1ccc(-c2cnc(N)c(C#Cc3cccc(OCCN(C)C)c3)n2)cc1 [Compound I-26]"
measured_attribute = "Ki"
measurement = "100 to 1000 nM"

[[record]]
molecule = "CC(C)S(=O)(=O)c1ccc(-c2cnc(N)c(C#Cc3ccccc3)n2)cc1 [Compound I-7]"
measured_attribute = "Ki"
measurement = "≤ 100 nM"

[[record]]
molecule = "CC(C)S(=O)(=O)c1ccc(-c2cnc(N)c(C#Cc3cccc(N)c3)n2)cc1 [Compound I-21]"
measured_attribute = "Ki"
measurement = "≤ 100 nM"

[[record]]
molecule = "CC(C)S(=O)(=O)c1ccc(-c2cnc(N)c(C#Cc3ccccc3F)n2)cc1 [Compound I-40]"
measured_attribute = "Ki"
measurement = "≤ 100 nM"

[[record]]
molecule = "CC(C)S(=O)(=O)c1ccc(-c2cnc(N)c(C#Cc3cc(Cl)cc(CO)c3)n2)cc1 [Compound I-48]"
measured_attribute = "Ki"
measurement = "≤ 100 nM"


Ask | Give reported Ki value for CC(C)S(=O)(=O)c1ccc(-c2cnc(N)c(C#Cc3ccccn3)n2)cc1 [Compound I-33]
Reply | ≤ 100 nM

Ask | Give reported Ki value for C#Cc1nc(-c2ccc(S(=O)(=O)C(C)C)cc2)cnc1N [Compound I-5]
Reply | 100 to 1000 nM

Ask | Give reported Ki value for Cc1cccc(C#Cc2nc(-c3ccc(S(=O)(=O)C(C)C)cc3)cnc2N)c1 [Compound I-11]
Reply | ≤ 100 nM

====

target: ATR kinase (Homo sapiens)
Construct: Assays were carried out at 25° C. in the presence of 5 nM full-length ATR
method-notes: ATR Inhibition Assay (radioactive-phosphate incorporation)
Assay type: biochemical
measured-attribute: Ki

Past entries and their recorded results:
[[record]]
compound = "Nc1ncc(-c2ccc(S(=O)(=O)C3CCNCC3)cc2)nc1C#Cc1cccc(O)c1"
target = "ATR kinase (Homo sapiens)"
measurement = "≤ 100 nM"

[[record]]
compound = "CC(C)S(=O)(=O)c1ccc(-c2cnc(N)c(C#Cc3ccc(C#N)cc3)n2)cc1"
target = "ATR kinase (Homo sapiens)"
measurement = "1000 to 13000 nM"

[[record]]
compound = "CC(C)S(=O)(=O)c1ccc(-c2cnc(N)c(C#CC3CC3)n2)cc1"
target = "ATR kinase (Homo sapiens)"
measurement = "100 to 1000 nM"

[[record]]
compound = "CC(C)S(=O)(=O)c1ccc(-c2cnc(N)c(C#Cc3ccc(C(O)CN)cc3)n2)cc1 (centres unmarked)"
target = "ATR kinase (Homo sapiens)"
measurement = "≤ 100 nM"

[[record]]
compound = "CC(C)S(=O)(=O)c1ccc(-c2cnc(N)c(C#Cc3cccc(OCCCN(C)C)c3)n2)cc1"
target = "ATR kinase (Homo sapiens)"
measurement = "≤ 100 nM"

[[record]]
compound = "N#Cc1ccccc1-c1cnc(N)c(C#Cc2cccc(O)c2)n1"
target = "ATR kinase (Homo sapiens)"
measurement = "≤ 100 nM"

[[record]]
compound = "CC(C)S(=O)(=O)c1ccc(-c2cnc(N)c(C#Cc3ccccc3N)n2)cc1"
target = "ATR kinase (Homo sapiens)"
measurement = "100 to 1000 nM"


Okay, now this compound:
Ask | Give reported Ki value for Nc1ncc(-c2ccc(S(=O)(=O)C3CCOCC3)cc2)nc1C#Cc1cccc(O)c1
Reply | ≤ 100 nM
